Target: Transforming acidic coiled-coil-containing protein 3 (Homo sapiens) (UniProt Q9Y6A5)
Assay: disruptors of ARNT/TACC3 protein interaction, primary screen, biochemical, AlphaScreen, single concentration (AID 623870);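 further: 0% = complete ARNT plus TACC3 wells and 100% = ARNT alone without TACC3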
Conditions: AlphaScreen His-ARNT PAS-B/GST-TACC3 binding, luminescence; at 9.99 µM
The campaign covered roughly 390,000 compounds. About 2,600 (0.67%) were called active.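 How the source made its calls: active means mean inhibition of replicates at least 50% and at least half of replicates each reaching 50%; inconclusive means half or more replicates reach 50% but mean below 50%; inactive means the rest.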 The list comes from a sample in which actives are over-represented; it also holds close analogues and randomly drawn compounds.
Classes used: true (1) = active, false (0) = inactive

>  <Compound Structure>
CCOC(=O)[C@@H]1[C@@H]2NC(=O)N[C@@]1(C)Oc1ccccc12

>  <Class Name>
false (0)

$$$$
>  <Compound Structure>
O=C(N/N=C/c1c(O)n(C2CC2)c(=S)[nH]c1=O)c1ccccc1Cl

>  <Class Name>
true (1)

$$$$
>  <Compound Structure>
O=c1[nH]c(=O)n(CCc2ccccc2)c(O)c1/C=N/N1CCOCC1

>  <Class Name>
false (0)

$$$$
>  <Compound Structure>
O=C(N/N=C/c1c(O)n(C2CC2)c(=S)[nH]c1=O)c1ccccc1

>  <Class Name>
true (1)

$$$$
>  <Compound Structure>
COc1ccccc1-n1c(O)c(C=NC2CC2)c(=O)[nH]c1=O

>  <Class Name>
false (0)

$$$$
>  <Compound Structure>
CCCCC(=O)N/N=C/c1c(O)n(-c2ccccc2)c(=O)[nH]c1=O

>  <Class Name>
true (1)

$$$$

* * *

Target: Transforming acidic coiled-coil-containing protein 3 (Homo sapiens) (UniProt Q9Y6A5)
Assay: disruptors of ARNT/TACC3 protein interaction, primary screen, biochemical, AlphaScreen, single concentration (AID 623870);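 further: 0% = complete ARNT plus TACC3 wells and 100% = ARNT alone without TACC3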
Settings: AlphaScreen His-ARNT PAS-B/GST-TACC3 binding, luminescence; at 9.99 µM; stronger effect = higher value
About 2,600 (0.67%) of roughly 390,000 compounds were called active. The entries come from a sample that favours actives as a whole.
Parameter: inhibition. Scope: all listed entries.

>  <Compound Structure>
COc1ccc(C#Cc2ccc([C@H]3[C@H](CO)N4CCCCN(C(=O)Cc5ccccc5)C[C@@H]34)cc2)cc1

>  <inhibition [%]>
-4.42

$$$$
>  <Compound Structure>
O=C1N=c2ccccc2=C/C1=C\c1c(O)[nH]c(=S)[nH]c1=O

>  <inhibition [%]>
37

$$$$
>  <Compound Structure>
COC(=O)[C@@H]1[C@@H](CO)[C@@H]2Cn3c(ccc(C4=CCCCC4)c3=O)[C@H]1N2CC1CC1

>  <inhibition [%]>
-4.97

$$$$
